# testedOn: 5-HT1 receptor
# assayNotes: Affinity for the 5-HT1 receptor, 3H-serotonin binding to calf hippocampus membranes
# setupConditions: 3H-serotonin radioligand
# From the text: 1.) Affinity for the 5-HT1 receptor The high affinity of the compounds according to the invention for 5-hydroxytryptamine receptors of the sub-type 1 is shown by way of example in Table A. The values given are data which have been determined from receptor binding studies using calf hippocampus membrane preparations. ^3 H-Serotonin was used as the radioactively labelled ligand for this.
Where a name gives a salt, the structure may show the parent alone.
reportedProperty: pKi
# pKi = -log10(concentration in molar units)

compound	pKi
COc1cccc2c1O[C@@H](CN(C)CC1CCCCCC1)CC2 [Example 13, hydrochloride]	7.44
CC(CCCNCC1CCc2ccccc2O1)c1ccccc1 (stereo not shown) [Example 18]	8.52
COc1ccc(CNCC2CCc3cccc(OC)c3O2)cc1 (stereo not shown) [Example 23]	8.30

Report its pKi with 5-HT1 receptor as the test system: COc1cccc2c1OC(CNCc1ccc(C(F)(F)F)cc1)CC2 (stereo not shown) [Example 22]
8.22
